// data source = ChEMBL document CHEMBL2218924

Molecular target: Protein kinase C delta type (Homo sapiens) (UniProt Q05655)
Sequence (Q05655 whole entry, looked up): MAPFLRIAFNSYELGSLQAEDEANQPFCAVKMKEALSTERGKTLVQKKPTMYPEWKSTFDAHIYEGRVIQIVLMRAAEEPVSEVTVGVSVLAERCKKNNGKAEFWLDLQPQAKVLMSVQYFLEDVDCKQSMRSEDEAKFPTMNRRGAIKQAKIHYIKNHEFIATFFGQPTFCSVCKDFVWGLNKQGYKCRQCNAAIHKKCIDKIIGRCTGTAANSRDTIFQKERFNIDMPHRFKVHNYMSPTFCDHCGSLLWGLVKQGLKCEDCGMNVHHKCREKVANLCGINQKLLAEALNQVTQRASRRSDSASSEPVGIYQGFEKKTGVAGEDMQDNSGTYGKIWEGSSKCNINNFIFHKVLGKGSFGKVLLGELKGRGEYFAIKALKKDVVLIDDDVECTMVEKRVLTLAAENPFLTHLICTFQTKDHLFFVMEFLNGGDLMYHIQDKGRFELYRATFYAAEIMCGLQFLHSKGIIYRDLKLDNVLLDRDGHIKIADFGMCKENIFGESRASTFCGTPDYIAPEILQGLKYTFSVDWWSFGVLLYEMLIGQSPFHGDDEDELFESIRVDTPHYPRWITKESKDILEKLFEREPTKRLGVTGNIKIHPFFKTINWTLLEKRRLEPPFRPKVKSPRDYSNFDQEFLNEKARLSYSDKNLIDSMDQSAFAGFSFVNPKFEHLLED
Conditions: at 1 µM
MEASURED_PROPERTY: residual activity (%)
Field: numeric (%). Do not append units.

These recorded examples may help you get a feel for the data.
| MOLECULE_SMILES | residual activity [%] |
| --- | --- |
| O=[N+]([O-])c1ccc(-c2nc(-c3ccc(F)cc3)c(-c3ccncc3)[nH]2)cc1 | 104 |
| O=C(O)c1ccc2c3c1cccc3c(=O)n1c3ccccc3nc21 | 100 |
| Oc1ccc(Nc2nc(-c3ccc(Cl)cc3)cs2)cc1 | 105 |
| O=C1Nc2ccc(Br)cc2/C1=C\c1cc2c([nH]1)CCCC2 | 100 |

The compound Ic1cccc(CSc2nnc(-c3ccncc3)o2)c1 showed residual activity equal to 100

The compound Nc1nc(Nc2ccc(S(N)(=O)=O)cc2)nn1C(=S)Nc1c(F)cccc1F showed residual activity equal to 10

The compound COc1cccc(-c2cc(=O)c3ccccc3o2)c1N showed residual activity equal to 113

The compound COc1ccc(S(=O)(=O)N(CCO)c2ccccc2CN(C)C/C=C/c2ccc(Cl)cc2)cc1 showed residual activity equal to 108

The compound CCOc1cc2ncnc(Nc3cccc(Br)c3)c2cc1OCC showed residual activity equal to 106
